- Tested on: K4 kissing-loop RNA reporter;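 further: bound reporter read as fluorescence of individual clusters on recovered sequencing chips by microscopy, with normalized cluster intensities fitted with a binding model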
- ASSAY_NOTES: apparent KD of K4 kissing-loop reporter; higher = weaker reporter binding
- RUN_PARAMETERS: Eterna round: R107; input ligand: arginine 13.2 mM
EXPERIMENTAL_ENDPOINT: apparent KD of K4 kissing-loop reporter (nM)
Answers are plain numbers, in nM.

UAUAUAGUGACGGCCGCCACUAUAUUAAUGUUUAGGUUAGAGUGAUGUUUUGAUUAAUAUUUUUAUAGGACCGGGUUAUAUGUUA [xerrmullin]
314
GGAGCAGUGAUGUUGCUUGUAAUGCAUUCAGAGGAUAUUCGUUUGGGAAGAAGGCUGAAUCGUUCUUCGAGUGAUGUUCGAGGAU [Same State FMN A GF 16]
154

Report apparent KD of K4 kissing-loop reporter for each item below.
1. AUGUCUUAUAAACUCGUGGUUUCGAUCGAUACCAGUAGCGAGAGUUACCCUUGGCAGCGACAUGAGUGAUGUUCAUGUACGAAGA [KL-XTheoA4]
2. GGGCCUGGGCCCGUAAGGGCCUGGGCCCGUUAGGAUAUGACGUGAUUCAGAAGGGAUGGGUGGAGUGAUGUUCCACCCGAGAGGG [#2 Same State - FMN A Attempt #24 (HarryS)]

### Response
1. 89
2. 97.7

Report apparent KD of K4 kissing-loop reporter for each item below.
1. AGUAUGUAAUAUGGCAUAUUUAGAACUGAAGGAGCGCCGAAUAAGGCAGGUAGGUCGCGGAAUCAUGAGUGAUGUUCAUGACUAU [KL-SSArg-A26]
2. CGCGCGCGUUUGAGAGGGUGCGCGCGAAGUGAGGAUAUUUAGGGAGAAAGAAGGCACUAUAAAAUAUAGUGAUGUUAUAUAAGGG [SSFMNA.G]
3. AGACUACUGAUAGGAUAUAACAUACUAGCUCGUAUACCAAAGGUAUACGAGCUCCUUCUAGUGAUGUUAGAAGGGUCGGUAGUCA [Omei KL FMN B Exc B v4]
4. CCAAGCGUCAGCGAUACCAGAAUUCUAGUGAUGUUAGGUUCUGUCAUUGUACUAGCAGUGUUCCCUUGGCAGCGCGUGAUAGGCA [theeternabot_exclusion_KL_Theo_B_16]
5. GUGCAGUGAUGUUGCACGAGGAAAGACGAUACCAGCCGUAAAUAUGGCCCUUGGCAGCGUGGGCUAGCACAAAAUGUGCUAGUCU [Zareatza]

### Response
1. 116
2. 114
3. 101
4. 121
5. 109

Report apparent KD of K4 kissing-loop reporter for each item below.
1. GGUUCCUCAGUGAUGUUGAGGUGACCUCGGCAGGAUAUAGGCAUUACUAGAAGGGCCAAAAGAAUCCUGUGCAGCAACACAGGGA [Usrasoza]
2. GCCGUAGAUUGAAGGAGCGUUCUUCAGCAUACUUGCAGUGAUGUUGCAUUUUACAUGUAAGAACAGGUAGGUCGCAAUCUACGGC
3. GCGUCUGUCGGAAGGAGCGCACUAUGGAGUGAUGUUCCAUGACCGCACAGCUUGCGGUCAGUGCAGGUAGGUCGCCGAUAGCGUU [Diestera]

### Response
1. 238
2. 119
3. 157
